Reference for the values: paper PMC7118210

assay: Single-dose pharmacokinetics in dogs (plasma, UHPLC/MS/MS); type: in vivo, Beagle dogs; settings: male, Beagle, dog, plasma, iv, 12.4 mg/kg
value.kind: AUC(0-t) (ng·h/mL)
Report only the number, with the unit ng·h/mL understood.

Note to self: AUC(0-t) recorded for `C[C@@H]1O[C@@H](O[C@H]2[C@H](Oc3cc(O)c4c(c3)O[C@H](c3ccc(O)cc3)CC4=O)O[C@H](CO)[C@@H](O)[C@@H]2O)[C@H](O)[C@H](O)[C@H]1O` was 2640

----------
assay: Single-dose pharmacokinetics in dogs (plasma, UHPLC/MS/MS); assay type: in vivo, Beagle dogs; details: both sexes, beagle, dog, plasma, iv, 12.4 mg/kg
value.kind: clearance

Note to self: clearance recorded for `C[C@@H]1O[C@@H](O[C@H]2[C@H](Oc3cc(O)c4c(c3)O[C@H](c3ccc(O)cc3)CC4=O)O[C@H](CO)[C@@H](O)[C@@H]2O)[C@H](O)[C@H](O)[C@H]1O` was 71.8 mL/min/kg

----------
assay: Single-dose pharmacokinetics in rats (plasma, UHPLC/MS/MS); format: in vivo, Sprague Dawley rats; conditions: female, Sprague Dawley, rat, plasma, po, 168 mg/kg
value.kind: AUC(0-inf) (ng·h/mL)
Report only the number, with the unit ng·h/mL understood.

Note to self: AUC(0-inf) recorded for `C[C@@H]1O[C@@H](O[C@H]2[C@H](Oc3cc(O)c4c(c3)O[C@H](c3ccc(O)cc3)CC4=O)O[C@H](CO)[C@@H](O)[C@@H]2O)[C@H](O)[C@H](O)[C@H]1O` was 142

----------
assay: Single-dose pharmacokinetics in dogs (plasma, UHPLC/MS/MS); type: in vivo, Beagle dogs; details: both sexes, beagle, dog, plasma, iv, 12.4 mg/kg; read-out: MRT0-t
value.kind: MRT last (min)
Report only the number, with the unit min understood.

Note to self: MRT last recorded for C[C@@H]1O[C@@H](O[C@H]2[C@H](Oc3cc(O)c4c(c3)O[C@H](c3ccc(O)cc3)CC4=O)O[C@H](CO)[C@@H](O)[C@@H]2O)[C@H](O)[C@H](O)[C@H]1O [naringin, Naringin] was 42.2

----------
Assay: Single-dose pharmacokinetics in rats (plasma, UHPLC/MS/MS)
Type: in vivo, Sprague Dawley rats
Details: both sexes, Sprague Dawley, rat, plasma, po, 168 mg/kg
Text: Sixty healthy adult Sprague Dawley rats (180-220 g, half male and female) were purchased from the Guangdong Medical Laboratory Animal Center (Guangzhou, Guangdong, China). Thirty Beagle dogs (10-14 kg, half male and female) were purchased from the […] […] The compounds were detected by multiple reaction monitoring in the negative ion electrospray mode. […] All pharmacokinetic and excretion parameters were expressed as mean ± standard deviation (SD). […]
value.kind: AUC(0-inf) (ng·h/mL)
Report only the number, with the unit ng·h/mL understood.

Note to self: AUC(0-inf) recorded for C[C@@H]1O[C@@H](O[C@H]2[C@H](Oc3cc(O)c4c(c3)O[C@H](c3ccc(O)cc3)CC4=O)O[C@H](CO)[C@@H](O)[C@@H]2O)[C@H](O)[C@H](O)[C@H]1O [naringin, Naringin] was 145

----------
assay: Single-dose pharmacokinetics in dogs (plasma, UHPLC/MS/MS); format: in vivo, Beagle dogs; details: both sexes, Beagle, dog, plasma, po, 3.1 mg/kg
value.kind: Tmax
Just the number plus its unit, please.

Note to self: Tmax recorded for `C[C@@H]1O[C@@H](O[C@H]2[C@H](Oc3cc(O)c4c(c3)O[C@H](c3ccc(O)cc3)CC4=O)O[C@H](CO)[C@@H](O)[C@@H]2O)[C@H](O)[C@H](O)[C@H]1O` was 1.33 h

----------
test: Single-dose pharmacokinetics in rats (plasma, UHPLC/MS/MS); format: in vivo, Sprague Dawley rats; conditions: male, Sprague Dawley, rat, plasma, iv, 42 mg/kg
value.kind: half-life (h)
Report only the number, with the unit h understood.

Note to self: half-life recorded for `C[C@@H]1O[C@@H](O[C@H]2[C@H](Oc3cc(O)c4c(c3)O[C@H](c3ccc(O)cc3)CC4=O)O[C@H](CO)[C@@H](O)[C@@H]2O)[C@H](O)[C@H](O)[C@H]1O` was 1.65

----------
Test: Single-dose pharmacokinetics in rats (plasma, UHPLC/MS/MS)
Format: in vivo, Sprague Dawley rats
Settings: female, Sprague Dawley, rat, plasma, po, 10.5 mg/kg; read-out: Cmax
Excerpt: Sixty healthy adult Sprague Dawley rats (180-220 g, half male and female) were purchased from the Guangdong Medical Laboratory Animal Center (Guangzhou, Guangdong, China). Thirty Beagle dogs (10-14 kg, half male and female) were purchased from the […] […] The compounds were detected by multiple reaction monitoring in the negative ion electrospray mode. […] All pharmacokinetic and excretion parameters were expressed as mean ± standard deviation (SD). […]
value.kind: Cmax (ng/mL)
Report only the number, with the unit ng/mL understood.

Note to self: Cmax recorded for `C[C@@H]1O[C@@H](O[C@H]2[C@H](Oc3cc(O)c4c(c3)O[C@H](c3ccc(O)cc3)CC4=O)O[C@H](CO)[C@@H](O)[C@@H]2O)[C@H](O)[C@H](O)[C@H]1O` was 27.2

----------
experiment: Single ascending dose and food-effect pharmacokinetics of naringin tablets in healthy humans; assay type: in vivo, human; settings: both sexes, human, plasma, po, 80 mg, naringin 80 mg p.o. single dose
value.kind: AUC(0-inf) (ng·h/mL)
Report only the number, with the unit ng·h/mL understood.

Note to self: AUC(0-inf) recorded for C[C@@H]1O[C@@H](O[C@H]2[C@H](Oc3cc(O)c4c(c3)O[C@H](c3ccc(O)cc3)CC4=O)O[C@H](CO)[C@@H](O)[C@@H]2O)[C@H](O)[C@H](O)[C@H]1O [naringin, Naringin] was 12.2

----------
test: Single-dose pharmacokinetics in rats (plasma, UHPLC/MS/MS); assay type: in vivo, Sprague Dawley rats; conditions: male, Sprague Dawley, rat, plasma, po, 21 mg/kg; read-out: Cmax
value.kind: Cmax (ng/mL)
Report only the number, with the unit ng/mL understood.

Note to self: Cmax recorded for C[C@@H]1O[C@@H](O[C@H]2[C@H](Oc3cc(O)c4c(c3)O[C@H](c3ccc(O)cc3)CC4=O)O[C@H](CO)[C@@H](O)[C@@H]2O)[C@H](O)[C@H](O)[C@H]1O [naringin, Naringin] was 29.9

----------
assay: Single-dose pharmacokinetics in rats (plasma, UHPLC/MS/MS); assay type: in vivo, Sprague Dawley rats; details: both sexes, Sprague Dawley, rat, plasma, iv, 42 mg/kg; read-out: Cmax
value.kind: Cmax (ng/mL)
Report only the number, with the unit ng/mL understood.

# given.smiles, Cmax, ng/mL
measured = [
    ("C[C@@H]1O[C@@H](O[C@H]2[C@H](Oc3cc(O)c4c(c3)O[C@H](c3ccc(O)cc3)CC4=O)O[C@H](CO)[C@@H](O)[C@@H]2O)[C@H](O)[C@H](O)[C@H]1O", 88500),
]

Note to self: Cmax recorded for `O=C1C[C@@H](c2ccc(O)cc2)Oc2cc(O)cc(O)c21` was 3980

----------
Assay: Single ascending dose and food-effect pharmacokinetics of naringin tablets in healthy humans
Format: in vivo, human
Settings: both sexes, human, plasma, po, 40 mg, naringin 40 mg p.o. single dose
Experimental: Participants were healthy males and females, 18 to 40 years old, ≥50 kg weight, 19 to 25 kg m^2 body mass index. […] The optimal volume and activity in unit volume of enzyme solution [0.2 M acetic acid/water solution: 0.2 M ammonium acetate/water solution, 15:35 (v/v)] were determined through a pretest of the enzyme (rat plasma, 10 μl, 10 U μl^-1; dog plasma, 10 μl, 10 U μl^-1; human plasma, 20 μl, 20 U μl^-1; human urine, 10 μl, 10 U μl^-1). […]
value.kind: AUC(0-t)

Note to self: AUC(0-t) recorded for `C[C@@H]1O[C@@H](O[C@H]2[C@H](Oc3cc(O)c4c(c3)O[C@H](c3ccc(O)cc3)CC4=O)O[C@H](CO)[C@@H](O)[C@@H]2O)[C@H](O)[C@H](O)[C@H]1O` was 7.61 ng·h/mL

----------
assay: Single-dose pharmacokinetics in dogs (plasma, UHPLC/MS/MS); type: in vivo, Beagle dogs; details: both sexes, beagle, dog, plasma, po, 49.6 mg/kg; read-out: MRT0-t
value.kind: MRT last (h)
Report only the number, with the unit h understood.

Note to self: MRT last recorded for C[C@@H]1O[C@@H](O[C@H]2[C@H](Oc3cc(O)c4c(c3)O[C@H](c3ccc(O)cc3)CC4=O)O[C@H](CO)[C@@H](O)[C@@H]2O)[C@H](O)[C@H](O)[C@H]1O [naringin, Naringin] was 2.46

----------
assay: Single-dose pharmacokinetics in rats (plasma, UHPLC/MS/MS); type: in vivo, Sprague Dawley rats; conditions: female, Sprague Dawley, rat, plasma, po, 10.5 mg/kg
value.kind: AUC(0-inf) (ng·h/mL)
Report only the number, with the unit ng·h/mL understood.

Note to self: AUC(0-inf) recorded for C[C@@H]1O[C@@H](O[C@H]2[C@H](Oc3cc(O)c4c(c3)O[C@H](c3ccc(O)cc3)CC4=O)O[C@H](CO)[C@@H](O)[C@@H]2O)[C@H](O)[C@H](O)[C@H]1O [naringin, Naringin] was 34.6
